assay: Cell adhesion measured using the inhibitory concentration against Human umbilical vein endothelial cell (HUVEC) activation, with Na51CrO4 as radioligand at 100 uM; type: functional
property: inhibition at 100 µM (%)

input-smiles: CCNC(=O)c1ccc2ccc(OC)cc2c1OC(C)C
property: inhibition at 100 µM
reading-qualifier: =
result-number: 73
--
input-smiles: COc1ccc2sc(C(N)=O)c(Sc3ccccc3)c2c1
property: inhibition at 100 µM
reading-qualifier: =
result-number: 48
--
input-smiles: COc1ccc2sc(C(N)=O)c(OC)c2c1
property: inhibition at 100 µM
reading-qualifier: =
result-number: 60
--
input-smiles: Cc1ccc2sc(C(N)=O)c(OC(C)C)c2c1
property: inhibition at 100 µM
reading-qualifier: =
result-number: 61
--
input-smiles: CC(C)Oc1c(C(N)=O)oc2ccc(Cl)cc12
property: inhibition at 100 µM
reading-qualifier: =
result-number: 52
--
input-smiles: COc1ccc2sc(C(=O)Nc3ccccc3)c(OC(C)C)c2c1
property: inhibition at 100 µM
reading-qualifier: =
result-number: 12
--
input-smiles: CC(C)Oc1c(C(N)=O)ccc2ccccc12
property: inhibition at 100 µM
reading-qualifier: <
result-number: 4
